- test.protocol: Drug reactivity against cysteamine in pH 7.4 PBS buffer assessed as half life at 250 uM measured up to 72 hrs by HPLC-MS/MS analysis
- Assay type: ADME
- applied.conditions: PBS buffer with cysteamine (thiol reactivity)
Provide the reported half-life at 250 µM of each item.

The examples below pair each entry with its known result.
C=CC(=O)Oc1cc(C(F)(F)F)cc(C(F)(F)F)c1	< 1.02 min
FC(F)(F)c1cc(S)cc(C(F)(F)F)c1	> 3000 min
FC(F)(F)c1cc(N=C=S)cc(C(F)(F)F)c1	< 1.02 min
Fc1cc(C(F)(F)F)cc(C(F)(F)F)c1	> 3000 min

Would you kindly look at the next entry?
Data request: Report half-life at 250 µM for "O=C(CBr)c1cc(C(F)(F)F)cc(C(F)(F)F)c1" please.
Data returned: < 1.02 min
